// data source = ChEMBL document CHEMBL4184138

test system: Mus musculus; assay: Antinociceptive activity in Kunming mouse assessed as increase in latency to withdrawal by measuring AUC at 20 nmol/kg, i.c.v measured up to 45 mins post dose by tail-flick test; assay type: functional, organism-based; set-up: dose 20 nmol/kg, time < 0.75 hr
Please use condition met for AUC under 300 and condition not met for everything else, ties included.

Record excerpt, results attached:
C[C@@H](NC(=O)[C@@H](N)Cc1ccc(O)cc1)C(=O)NCC(=O)N[C@@H](Cc1c[nH]c2ccccc12)C(=O)N[C@@H](Cc1ccc(Cl)cc1)C(N)=O :: condition met
NC(=O)[C@H](Cc1ccccc1)NC(=O)[C@H](Cc1c[nH]c2ccccc12)NC(=O)[C@@H]1CCCN1C(=O)[C@@H](N)Cc1ccc(O)cc1 :: condition met
C[C@@H](NC(=O)[C@@H](N)Cc1ccc(O)cc1)C(=O)NCC(=O)N[C@@H](Cc1c[nH]c2ccccc12)C(=O)N[C@@H](Cc1ccccc1)C(N)=O :: condition not met
C[C@@H](NC(=O)[C@H](Cc1ccc(O)cc1)NC(=N)N)C(=O)NCC(=O)N[C@@H](Cc1c[nH]c2ccccc12)C(=O)N[C@@H](Cc1ccccc1)C(N)=O :: condition not met

Now look at this one.
Is AUC of C[C@@H](NC(=O)[C@H](Cc1ccc(O)cc1)NC(=N)N)C(=O)NCC(=O)N[C@@H](Cc1c[nH]c2ccccc12)C(=O)N[C@@H](Cc1ccc(Cl)cc1)C(N)=O strictly below 300?
condition not met

###

molecular target: Delta-type opioid receptor (Rattus norvegicus, UniProt P33533); test: Displacement of [3H]-DPDPE from delta opioid receptor in Wistar rat brain membranes preincubated for 3 hrs measured after 1 hr by scintillation counting method
Sequence (P33533 whole entry): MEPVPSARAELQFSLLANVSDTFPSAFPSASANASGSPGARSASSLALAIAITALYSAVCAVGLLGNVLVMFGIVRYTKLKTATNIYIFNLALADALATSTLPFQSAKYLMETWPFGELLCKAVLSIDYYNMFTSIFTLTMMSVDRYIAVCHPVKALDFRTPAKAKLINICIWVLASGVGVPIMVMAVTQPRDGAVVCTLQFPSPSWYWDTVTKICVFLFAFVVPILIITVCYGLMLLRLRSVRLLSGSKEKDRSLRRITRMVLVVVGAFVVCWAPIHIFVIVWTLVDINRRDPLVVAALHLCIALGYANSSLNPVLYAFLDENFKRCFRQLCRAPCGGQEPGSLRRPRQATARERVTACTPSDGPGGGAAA
Reported pKi is given for each of the following compounds.
// scale note: pKi = -log10(conc_M); give the bare number

C[C@@H](NC(=O)[C@@H](N)Cc1ccc(O)cc1)C(=O)NCC(=O)N[C@@H](Cc1c[nH]c2ccccc12)C(=O)N[C@@H](Cc1ccc(Cl)cc1)C(N)=O :: 5.39
C[C@@H](NC(=O)[C@@H](N)Cc1ccc(O)cc1)C(=O)NCC(=O)N[C@@H](Cc1c[nH]c2ccccc12)C(=O)N[C@@H](Cc1ccccc1)C(N)=O :: 5.39
C[C@@H](NC(=O)[C@H](Cc1ccc(O)cc1)NC(=N)N)C(=O)NCC(=O)N[C@@H](Cc1c[nH]c2ccccc12)C(=O)N[C@@H](Cc1ccccc1)C(N)=O :: 5.41

Next compound, please.
Delta-type opioid receptor (Rattus norvegicus, UniProt P33533) / pKi / C[C@@H](NC(=O)[C@H](Cc1ccc(O)cc1)NC(=N)N)C(=O)NCC(=O)N[C@@H](Cc1c[nH]c2ccccc12)C(=O)N[C@@H](Cc1ccc(Cl)cc1)C(N)=O : value?
5.69

###

tested on: Mus musculus; assay: Antinociceptive activity in Kunming mouse assessed as increase in latency to withdrawal by measuring AUC at 10 mg/kg, sc measured up to 45 mins post dose by tail-flick test; type: functional, organism-based; design: dose 10 mg/kg, time < 0.75 hr
We use 600 as the dividing line for AUC: on or above the line is MET, below is NOT MET.

Record excerpt, results attached:
NC(=O)[C@H](Cc1ccccc1)NC(=O)[C@H](Cc1c[nH]c2ccccc12)NC(=O)[C@@H]1CCCN1C(=O)[C@@H](N)Cc1ccc(O)cc1 :: MET
C[C@@H](NC(=O)[C@@H](N)Cc1ccc(O)cc1)C(=O)NCC(=O)N[C@@H](Cc1c[nH]c2ccccc12)C(=O)N[C@@H](Cc1ccc(Cl)cc1)C(N)=O :: NOT MET
C[C@@H](NC(=O)[C@H](Cc1ccc(O)cc1)NC(=N)N)C(=O)NCC(=O)N[C@@H](Cc1c[nH]c2ccccc12)C(=O)N[C@@H](Cc1ccccc1)C(N)=O :: MET
C[C@@H](NC(=O)[C@H](Cc1ccc(O)cc1)NC(=N)N)C(=O)NCC(=O)N[C@@H](Cc1c[nH]c2ccccc12)C(=O)N[C@@H](Cc1ccc(Cl)cc1)C(N)=O :: MET

Now look at this one.
// inclusive: AUC at least 600? input: C[C@@H](NC(=O)[C@@H](N)Cc1ccc(O)cc1)C(=O)NCC(=O)N[C@@H](Cc1c[nH]c2ccccc12)C(=O)N[C@@H](Cc1ccccc1)C(N)=O
NOT MET

###

Reported half-life at 500 µM is given for each of the following molecules.
experiment: Half life in Kunming mouse plasma at 500 uM by RP-HPLC analysis; type: ADME, cell-free
Numbers only; they are read as h.

Guide cases for half-life at 500 µM, answers given:
C[C@@H](NC(=O)[C@@H](N)Cc1ccc(O)cc1)C(=O)NCC(=O)N[C@@H](Cc1c[nH]c2ccccc12)C(=O)N[C@@H](Cc1ccc(Cl)cc1)C(N)=O :: 2.84
C[C@@H](NC(=O)[C@@H](N)Cc1ccc(O)cc1)C(=O)NCC(=O)N[C@@H](Cc1c[nH]c2ccccc12)C(=O)N[C@@H](Cc1ccccc1)C(N)=O :: 2.51
C[C@@H](NC(=O)[C@H](Cc1ccc(O)cc1)NC(=N)N)C(=O)NCC(=O)N[C@@H](Cc1c[nH]c2ccccc12)C(=O)N[C@@H](Cc1ccccc1)C(N)=O :: 4.08

Next molecule, please.
Need half-life at 500 µM, item C[C@@H](NC(=O)[C@H](Cc1ccc(O)cc1)NC(=N)N)C(=O)NCC(=O)N[C@@H](Cc1c[nH]c2ccccc12)C(=O)N[C@@H](Cc1ccc(Cl)cc1)C(N)=O
4.73
